src = the supplement of paper PMC7411054

Test system: WPMY1-TP53BP1-CLTA
Experiment: phenotypically active (imaging signature differs from DMSO and reproducible) at any of 0.3-9 uM (binary (1 = active, 0 = inactive)); higher = active
Details: treatment time: 24 h
Structures can show the parent of a compound that is named as a salt.

Compound: CC[C@H]1CN2CC[C@H]1C[C@@H]2[C@@H](O)c1ccnc2ccc(OC)cc12 [Hydroquinidine HCl]
phenotypically active: 0
//
Compound: O=C(O)CC[N+](=O)[O-]
phenotypically active: 0
//
Compound: CNC(C)(C)Cc1ccccc1
phenotypically active: 0
//
Compound: C[C@]1(C(=O)O)CCC[C@]2(C)c3cc(O)ccc3CC[C@@H]12
phenotypically active: 0
//
Compound: C[C@]12CC[C@H]3[C@@H](CC[C@]4(O)C[C@@H](O)CC[C@]34C=O)[C@@]1(O)CC[C@@H]2C1=CC(=O)OC1
phenotypically active: 1
//
Compound: COc1cc2c(c(OC)c1OC)-c1ccc(OC)c(=O)cc1[C@@H](NC(C)=O)CC2
phenotypically active: 1
//
Compound: Clc1ccc2c(c1)C(c1ccccc1)=NCc1nncn1-2
phenotypically active: 0
//
Compound: O=C1C=C2C=C[C@@H]3C[C@@]2(O1)[C@H]1CCCCN31
phenotypically active: 0
//
Compound: COc1ccc(N(C(=O)Oc2c(C)cccc2C)c2ccnc(Nc3ccc(N4CCN(C)CC4)cc3)n2)c(OC)c1
phenotypically active: 1
//
Compound: CC(C)C[C@H](CN)CC(=O)O
phenotypically active: 0
//
Compound: N[C@@H]1C[C@H]1c1cc(F)cc(F)c1OCc1ccccc1
phenotypically active: 1
//
Compound: CCCCCCCCCC(=O)O[C@H]1CC[C@H]2[C@@H]3CCC4=CC(=O)CC[C@@H]4[C@H]3CC[C@]12C [nandrolone-decanoate]
phenotypically active: 0
//
Compound: CCCN1CCC[C@@H]2Cc3n[nH]cc3C[C@H]21 [(-)-Quinpirole hydrochloride]
phenotypically active: 0
//
Compound: COc1cc2c(cc1O)C[C@H]1c3c(cc(O)c(OC)c3-2)CCN1C
phenotypically active: 0
//
Compound: O=c1cccc2n1C[C@H]1CNC[C@H]2C1 [Cytisine nitrate hydrate]
phenotypically active: 0
//
Compound: COC(=O)[C@@]1(O)C[C@H]2O[C@]1(C)n1c3ccccc3c3c4c(c5c6ccccc6n2c5c31)C(=O)NC4
phenotypically active: 1
//
Compound: C[N+]1([O-])[C@@H]2C[C@@H](OC(=O)[C@H](CO)c3ccccc3)C[C@H]1[C@@H]1O[C@@H]12 (some centres not stated)
phenotypically active: 0

---

Test system: A549-TUBA1B-RELA
Assay: phenotypically active (imaging signature differs from DMSO and reproducible) at any of 0.3-9 uM (binary (1 = active, 0 = inactive)); higher = active
Conditions: treatment time: 24 h
Counter-ions that a name gives are not always drawn.
Labels: active, inactive

Molecule: COc1cc2c(cc1OC)[C@@]13CCN4CC5=CCO[C@H]6CC(=O)N2[C@H]1[C@H]6[C@H]5C[C@H]43
Assay target: A549-TUBA1B-RELA
Assigned label: inactive

Molecule: CCN(CC)CCN1C(=O)CN=C(c2ccccc2F)c2cc(Cl)ccc21
Assay target: A549-TUBA1B-RELA
Assigned label: inactive

Molecule: COc1cc2c(cc1O)C[C@H]1c3c(cc(O)c(OC)c3-2)CCN1C
Assay target: A549-TUBA1B-RELA
Assigned label: active

Molecule: O=C(O)CC[N+](=O)[O-]
Assay target: A549-TUBA1B-RELA
Assigned label: inactive

Molecule: CN1C[C@H](C(=O)N[C@]2(C)O[C@@]3(O)[C@@H]4CCCN4C(=O)[C@H](Cc4ccccc4)N3C2=O)C=C2c3cccc4[nH]cc(c34)C[C@H]21
Assay target: A549-TUBA1B-RELA
Assigned label: active

Molecule: CCN1C[C@]2(COC)CC[C@H](OC)[C@]34[C@@H]5C[C@H]6[C@H](OC)[C@@H]5[C@@]5(C[C@@H]6OC)OCO[C@@]5([C@H]13)[C@@H](O)[C@H]24
Assay target: A549-TUBA1B-RELA
Assigned label: inactive

Molecule: O=C(NCCN1CCC2(CC1)C(=O)NCN2c1cccc(F)c1)c1ccc(F)c(F)c1 [ML 298 hydrochloride]
Assay target: A549-TUBA1B-RELA
Assigned label: active

Molecule: CNC(=O)Oc1ccc2c(c1)[C@]1(C)CCN(C)[C@@H]1N2C [Eserine sulfate, physostigmine sulfate]
Assay target: A549-TUBA1B-RELA
Assigned label: inactive

Molecule: C[C@H](CCC(=O)O)C[C@H](C)C[C@H](C)C(=O)/C=C(\O)[C@H](C)C[C@H](C)C/C=C/[C@@H](C)[C@@H](O)[C@@H](C)[C@@H](O)C[C@@H]1CC[C@@](C)([C@H]2CC[C@@](C)([C@@H](C)O)O2)O1 [Ionomycin free acid]
Assay target: A549-TUBA1B-RELA
Assigned label: inactive

Molecule: CC(C)(C)c1cc(C=C(C#N)C#N)cc(Br)c1O
Assay target: A549-TUBA1B-RELA
Assigned label: inactive

Molecule: CC[C@@H](C)C(=O)O[C@H]1[C@H](O)[C@H]2[C@@H](CN3C[C@@H](C)CC[C@H]3[C@@]2(C)O)C2C[C@]34O[C@]5(O)[C@@H](OC(=O)[C@](C)(O)CC)CC[C@@]3(C)[C@@H]5[C@@H](OC(C)=O)[C@@H](OC(C)=O)[C@H]4[C@@]21O (stereo partly specified)
Assay target: A549-TUBA1B-RELA
Assigned label: inactive

Molecule: C=C(C)[C@H]1CN[C@H](C(=O)O)[C@H]1CC(=O)O
Assay target: A549-TUBA1B-RELA
Assigned label: inactive

Molecule: COc1cc2c(c(OC)c1OC)-c1ccc(OC)c(=O)cc1[C@@H](NC(C)=O)CC2
Assay target: A549-TUBA1B-RELA
Assigned label: active

Molecule: C[C@]12CC[C@H]3[C@@H](CC[C@]4(O)C[C@@H](O)CC[C@]34C=O)[C@@]1(O)CC[C@@H]2C1=CC(=O)OC1
Assay target: A549-TUBA1B-RELA
Assigned label: active

Molecule: Cc1nnc2n1-c1ccc(Cl)cc1C(c1ccccc1)=NC2
Assay target: A549-TUBA1B-RELA
Assigned label: inactive

Molecule: COC1=CC(C)=C[C@@H](C)[C@@H](O)[C@@H](C)CC(C)=CC=C[C@H](OC)[C@@H]([C@@H](C)[C@@H](O)[C@H](C)[C@@]2(O)C[C@@H](O)[C@H](C)[C@@H](C(C)C)O2)OC1=O
Assay target: A549-TUBA1B-RELA
Assigned label: active

Molecule: C[C@H]1C(=O)O[C@@H]2CCN3CC=C(COC(=O)[C@](C)(O)[C@]1(C)O)[C@H]23
Assay target: A549-TUBA1B-RELA
Assigned label: active

Molecule: CC[C@@H](C(=O)[C@@H](C)[C@@H](O)[C@H](C)[C@@H]1O[C@@H]([C@@H](CC)C(=O)O)CC[C@@H]1C)[C@H]1O[C@]2(C=C[C@@H](O)[C@]3(CC[C@@](C)([C@H]4CC[C@](O)(CC)[C@H](C)O4)O3)O2)[C@H](C)C[C@@H]1C [Salinomycin Sodium]
Assay target: A549-TUBA1B-RELA
Assigned label: active

Molecule: O=C(Nc1ccncc1)C(=O)c1cn(Cc2ccc(Cl)cc2)c2ccccc12
Assay target: A549-TUBA1B-RELA
Assigned label: active

Molecule: CC(C)[C@H]1C(=O)O[C@@H]2CCN3CC=C(COC(=O)[C@](C)(O)[C@@]1(C)O)[C@H]23
Assay target: A549-TUBA1B-RELA
Assigned label: inactive

Molecule: C[C@@H]1NCCc2cc(O)c(O)cc21 [Salsolinol hydrobromide]
Assay target: A549-TUBA1B-RELA
Assigned label: inactive

Molecule: C[C@]12CC[C@H]3[C@@H](CCC4=CC(=O)CC[C@@]43C)[C@@H]1CC[C@@H]2O
Assay target: A549-TUBA1B-RELA
Assigned label: inactive

Molecule: Cc1c(C(=O)Nc2cccc(C(F)(F)F)c2)cc(-c2ccccc2)n1CCCN1CCOCC1
Assay target: A549-TUBA1B-RELA
Assigned label: inactive

Molecule: COc1ccc2c(c1OC)C(=O)O[C@@H]2[C@H]1c2cc3c(cc2CCN1C)OCO3 [Hydrastine]
Assay target: A549-TUBA1B-RELA
Assigned label: inactive

Molecule: CC[C@@H]1C=CC=CC[C@H](C)[C@@H](O)[C@](C)(O)C(=O)[C@H](C)[C@@H](O)[C@H](C)C(=O)[C@H](C)[C@@H](O)[C@H](C)C=CC(=O)O[C@H]2[C@@H](C)[C@@H](CC1)O[C@@]1(CC[C@@H](C)[C@@H](C[C@H](C)O)O1)[C@@H]2C
Assay target: A549-TUBA1B-RELA
Assigned label: active

Molecule: CNC(=O)Oc1ccc2c(c1)[C@]1(C)CCN(C)O[C@@H]1N2C
Assay target: A549-TUBA1B-RELA
Assigned label: inactive
